// data source = PubChem BioAssay (NCI)

- Test system: LOX IMVI melanoma
- Assay: NCI-60 one-dose screen, 48 h
- Condition set: 10 µM unless noted
About 83,000 compounds went through this panel and 20% of them were active in at least one assay; those are over-represented in the sample as a whole. The source made the active and inactive calls. How the source made its calls: active means growth percent below 10; inactive means the rest.
Respond only with the outcome that fits, drawn from true for active, false for inactive

input: For Ic1ccc2[nH]cc(SSc3c[nH]c4ccc(I)cc34)c2c1 , what call appears in the results of this test?
output: true

input: For O=C(C[n+]1ccn(CC(OCc2ccc(Cl)cc2Cl)c2ccc(Cl)cc2Cl)c1)c1ccc(F)cc1 (stereo unspecified) , what call appears in the results of this test?
output: true

input: For C#CCNC(=O)CC[C@]1(C)[C@H]2CC[C@@H]3[C@@H]([C@@](C)(O)CCC=C(C)C)CC[C@@]3(C)[C@]2(C)CC[C@H]1C(=C)C , what call appears in the results of this test?
output: true

input: For O=C1NC(=O)C(Cc2ccccc2)(Cc2ccccc2)N1 , what call appears in the results of this test?
output: false

input: For CC(C)CCSC1=CC(=O)c2ccccc2C1=O , what call appears in the results of this test?
output: false

input: For CSc1nc2sc3cc(Cl)c(Cl)cc3n2c(=N)c1C#N , what call appears in the results of this test?
output: false

input: For CCCN1CC(c2ccc(OC)c(OC)c2)=C(c2cn(C(=O)OCC)c3ccccc23)C1=O , what call appears in the results of this test?
output: false

input: For Nc1cccc2c1C(=O)c1cccc(NC(=O)c3ccccc3)c1C2=O , what call appears in the results of this test?
output: true

input: For CCCSc1nc(N)nc2nc[nH]c12 , what call appears in the results of this test?
output: false

input: For Clc1ccc2nc(-c3ccc(-c4ccc(/C=N/NC5=NCCN5)cc4)s3)cn2c1 , what call appears in the results of this test?
output: false

input: For CC1(C)S[C@@H]2[C@H](NC(=O)[C@H](C(=O)O)c3cccs3)C(=O)N2[C@H]1C(=O)O , what call appears in the results of this test?
output: false

input: For O=C(CCCCCCSc1nc(-c2ccc(Cl)cc2)cc(-c2ccc(Cl)cc2)n1)NO , what call appears in the results of this test?
output: true

input: For Brc1ccc(-c2nnc3c4[nH]ccc4ncn23)cc1 , what call appears in the results of this test?
output: false

input: For O=C(CSc1nc2ccc([N+](=O)[O-])cc2[nH]1)Nc1ccc(F)c(Cl)c1 , what call appears in the results of this test?
output: false

input: For COc1ccc2c(c1)c(-c1noc(C(=O)c3cn(C)c4ncc(Br)cc34)n1)cn2C , what call appears in the results of this test?
output: false

input: For COCCCNc1nc(NC(=O)c2cc(Br)cc(C(F)(F)F)c2)cc(-c2cccnc2)n1 , what call appears in the results of this test?
output: false

input: For COc1ccc2nc3c(cc2c1)C(=O)CC(C(F)(F)F)C3 (stereo unspecified) , what call appears in the results of this test?
output: false

input: For CC(C)=CC/C=C(/C)[C@H]1CC[C@]2(C)[C@@H]1CC[C@@H]1[C@@]3(C)CC/C(=N/O)C(C)(C)[C@@H]3CC[C@]12C , what call appears in the results of this test?
output: false

input: For COc1cc2c(cc1OCCCN1CCN(CCCOc3cc4c(cc3OC)C(=O)N3C[C@H](F)C[C@H]3C=N4)CC1)N=C[C@@H]1C[C@@H](F)CN1C2=O , what call appears in the results of this test?
output: true

input: For O=C1CC(c2ccccc2)Cc2nc3ccc(Cl)cc3cc21 (stereo unspecified) , what call appears in the results of this test?
output: false

input: For c1nc(N2CCOCC2)c2[nH]ccc2n1 , what call appears in the results of this test?
output: false

input: For CC(C)C1=NOC(=O)C1=Cc1cn(-c2ccccc2)nc1-c1ccc(Cl)cc1 , what call appears in the results of this test?
output: true

input: For Cc1ccc(S(=O)(=O)Nc2ccccc2)cc1N , what call appears in the results of this test?
output: false

input: For O=c1[nH]c(CN2CCN(c3cccc(Cl)c3)CC2)nc2cc(Cl)ccc12 , what call appears in the results of this test?
output: false

input: For CCCCCCCCCCCCNC(=S)N/N=C/c1ccccc1O , what call appears in the results of this test?
output: false

input: For CCCC[C@@H](C=O)NC(=O)[C@H](CC(C)C)NC(=O)[C@H](CC(C)C)NC(=O)OCc1ccccc1 , what call appears in the results of this test?
output: true

input: For Nc1nc(N)c2c(n1)NC(c1ccc(F)cc1)C1CCc3ccccc3C1=N2 (stereo unspecified) , what call appears in the results of this test?
output: false

input: For CCCCCN(CCCCC)CCCCCCCCN1CCCc2ccccc21 , what call appears in the results of this test?
output: false

input: For Cc1ccc2c(c1)/C(=N\N=C/c1cn(C(C)C)c3ccccc13)C(=O)N2 , what call appears in the results of this test?
output: false

input: For O=[N+]([O-])c1ccc(O)c(-c2nc3ccccc3s2)c1 , what call appears in the results of this test?
output: false

input: For Cn1c(=O)c(C#N)c(-c2ccco2)n2c(S(=O)(=O)Cc3ccccc3)nnc12 , what call appears in the results of this test?
output: false

input: For Cc1nc(-c2ccccc2)sc1CC#N , what call appears in the results of this test?
output: false

input: For CC(C)(C)c1cc(C(=O)Nc2ccccc2C(=O)NCCN)cc(C(C)(C)C)c1 , what call appears in the results of this test?
output: true

input: For N#C/C(C(=O)c1ccccc1)=C1/C(=O)Nc2ccc(Br)cc21 , what call appears in the results of this test?
output: false

input: For CCOC(=O)c1cc(C(=O)c2ccc(OC)c(OC)c2)n2ccc(-c3ccccn3)cc12 , what call appears in the results of this test?
output: false

input: For Cn1cc(-c2noc(C(=O)c3cn(C)c4ncccc34)n2)c2ccccc21 , what call appears in the results of this test?
output: false

input: For Cc1cc(C)c(S(=O)(=O)/N=c2/n(-c3ccccc3)nc3n2CCN3C2=NCCN2)c(C)c1 , what call appears in the results of this test?
output: false

input: For CC1(C)CC[C@]2(C(=O)O)CC[C@]3(C)C(=CC[C@@H]4[C@@]5(C)C/C(=C/c6ccco6)C(=O)C(C)(C)[C@@H]5CC[C@]43C)[C@@H]2C1 , what call appears in the results of this test?
output: true

input: For CCOC(=O)c1nn(C2CCCCO2)c2ccc(NC(=O)Cn3nnc4ccccc43)cc12 (stereo unspecified) , what call appears in the results of this test?
output: false

input: For COc1ccc(C2NC(=O)C(C#N)c3c2sc2c(F)cccc32)cc1 (stereo unspecified) , what call appears in the results of this test?
output: false

input: For COCc1nc2ccccc2[nH]1 , what call appears in the results of this test?
output: false
